# method summary: UV filtering parameters of cosmetic formulation on PMMA plates (modified Diffey-Robson)
# Assay type: physicochemical
# run conditions: 2% in formulation
Readings of UVAPF for the listed molecules
Respond using a number only.

O=S(=O)(O)c1ccc2[nH]c(-c3ccccc3)nc2c1 [PBSA, reference compound]
0.94
c1c[nH]c(-c2nc3ccccc3[nH]2)c1 [Compound 10, 2-(1H-pyrrol-2-yl)-1H-benzimidazole]
1.32
c1csc(-c2nc3ccccc3[nH]2)c1 [Compound 12, 2-(thiophen-2-yl)-1H-benzimidazole]
1.22

// moving on: another record for UVAPF
Input: # return recorded UVAPF for input c1coc(-c2nc3ccccc3[nH]2)c1 [Compound 11, 2-(furan-2-yl)-1H-benzimidazole]
Output: 1.53

====

The entries below come with measured λc values attached.
# method summary: UV filtering parameters of cosmetic formulation on PMMA plates (modified Diffey-Robson)
# Type: physicochemical
# run conditions: 3% in formulation
Reply with just the number (in nm).

Worked cases, answers included:
O=S(=O)(O)c1ccc2[nH]c(-c3ccccc3)nc2c1 [PBSA, reference compound]
324
c1c[nH]c(-c2nc3ccccc3[nH]2)c1
364
c1coc(-c2nc3ccccc3[nH]2)c1
371

# evaluate next
Input: Return λc for the following compound: c1csc(-c2nc3ccccc3[nH]2)c1
Output: 344

====

# method summary: Ferric reducing antioxidant power (FRAP) test
# run conditions: mean ± SEM
Please use True for FRAP under 100 µmolTE/g and False for everything else, ties included.

Example cases with answers are listed next.
O=C(O)c1ccc2nc(-c3ccco3)[nH]c2c1
True
O=C(O)c1ccc2[nH]c(-c3cccs3)nc2c1
False
c1c[nH]c(-c2nc3ccccc3[nH]2)c1
False
O=S(=O)(O)c1ccc2[nH]c(-c3cccs3)nc2c1
True
c1csc(-c2nc3ccccc3[nH]2)c1
True

Input: Determine if O=C(O)/C=C/c1ccc(O)c(O)c1 [Caffeic acid, reference compound] shows FRAP strictly lower than 100 µmolTE/g.
Output: False

Input: Take the compound O=S(=O)(O)c1ccc2[nH]c(-c3ccc[nH]3)nc2c1 and say whether its FRAP is less than 100 µmolTE/g.
Output: False

Input: Hello, is FRAP of the following compound strictly smaller than 100 µmolTE/g? O=C(O)c1ccc2[nH]c(-c3ccc[nH]3)nc2c1
Output: False

====

A set of compounds tested on human embryonic lung (HEL) cell cultures, with measured Cytotoxic concentration:

The cases that follow already have their Cytotoxic concentration on record.
O=C(O)c1ccc2[nH]c(-c3cccs3)nc2c1 [Compound 15]
> 100 µM
c1coc(-c2nc3ccccc3[nH]2)c1 [Compound 11, 2-(furan-2-yl)-1H-benzimidazole]
> 100 µM
O=S(=O)(O)c1ccc2[nH]c(-c3ccco3)nc2c1 [Compound 8]
> 100 µM
O=c1[nH]c(=O)n([C@H]2C[C@H](O)[C@@H](CO)O2)cc1/C=C/Br [Birivudin, Brivudin, reference compound]
> 250 µM
c1csc(-c2nc3ccccc3[nH]2)c1 [Compound 12, 2-(thiophen-2-yl)-1H-benzimidazole]
> 100 µM

Input: // output Cytotoxic concentration; input c1c[nH]c(-c2nc3ccccc3[nH]2)c1 [Compound 10, 2-(1H-pyrrol-2-yl)-1H-benzimidazole] ; system human embryonic lung (HEL) cell cultures
Output: > 100 µM

Input: Give Cytotoxic concentration for this entry on human embryonic lung (HEL) cell cultures: O=C(O)c1ccc2[nH]c(-c3ccc[nH]3)nc2c1 [Compound 13]
Output: > 100 µM

Input: With human embryonic lung (HEL) cell cultures as the test system, provide measured Cytotoxic concentration for this compound: O=C(O)c1ccc2nc(-c3ccco3)[nH]c2c1 [Compound 14]
Output: > 100 µM

Input: Output reported Cytotoxic concentration of the compound O=S(=O)(O)c1ccc2[nH]c(-c3cccs3)nc2c1 [Compound 9] on human embryonic lung (HEL) cell cultures.
Output: > 100 µM

Input: Give measured Cytotoxic concentration for O=S(=O)(O)c1ccc2[nH]c(-c3ccc[nH]3)nc2c1 [Compound 7] (human embryonic lung (HEL) cell cultures).
Output: > 100 µM

Input: Please tell me the measured Cytotoxic concentration for Nc1ccn(C[C@@H](CO)OCP(=O)(O)O)c(=O)n1 [Cidofovir, reference compound] ; system: human embryonic lung (HEL) cell cultures.
Output: > 250 µM

Input: Provide Cytotoxic concentration, system human embryonic lung (HEL) cell cultures, entry Nc1nc2c(ncn2COCCO)c(=O)[nH]1 [Acyclovir, reference compound]
Output: > 250 µM

Input: Please report the measured Cytotoxic concentration for Nc1nc(O)c2ncn(COC(CO)CO)c2n1 [Ganciclovir, reference compound] tested on human embryonic lung (HEL) cell cultures.
Output: > 250 µM

====

# method summary: UV filtering parameters of cosmetic formulation on PMMA plates (modified Diffey-Robson)
# Assay type: physicochemical
# run conditions: 1% in formulation
experimental readout: UVAPF
Answer as a number with no unit attached.

Reference set (3 entries):
O=S(=O)(O)c1ccc2[nH]c(-c3ccccc3)nc2c1 [PBSA, reference compound]
0.94
c1coc(-c2nc3ccccc3[nH]2)c1 [Compound 11, 2-(furan-2-yl)-1H-benzimidazole]
1.94
c1c[nH]c(-c2nc3ccccc3[nH]2)c1 [Compound 10, 2-(1H-pyrrol-2-yl)-1H-benzimidazole]
1.16

Input: State its UVAPF for this compound: c1csc(-c2nc3ccccc3[nH]2)c1 [Compound 12, 2-(thiophen-2-yl)-1H-benzimidazole]
Output: 1.16

====

# System: human melanoma cells (SK-Mel 5)
# method summary: Cell proliferation inhibition
Measured IC50 by item

Solved entries (count: 3):
O=C(O)c1ccc2[nH]c(-c3ccc[nH]3)nc2c1
> 100 µM
O=S(=O)(O)c1ccc2[nH]c(-c3ccco3)nc2c1
≥ 100 µM
O=S(=O)(O)c1ccc2[nH]c(-c3ccc[nH]3)nc2c1
> 100 µM

Input: For human melanoma cells (SK-Mel 5), give IC50 of the listed molecule: O=S(=O)(O)c1ccc2[nH]c(-c3cccs3)nc2c1
Output: > 100 µM

Input: Report IC50 from human melanoma cells (SK-Mel 5) testing of O=C(O)c1ccc2[nH]c(-c3cccs3)nc2c1
Output: > 100 µM

====

Measured IC50, listed per entry.
# Tested on: human melanoma cells (SK-Mel 5)
# method summary: Cell proliferation inhibition

Below, 2 compounds whose answers are already recorded.
O=C(O)c1ccc2nc(-c3ccco3)[nH]c2c1
> 100 µM
c1coc(-c2nc3ccccc3[nH]2)c1
> 100 µM

Input: Note down IC50 recorded for c1c[nH]c(-c2nc3ccccc3[nH]2)c1
Output: 9.7 µM

Input: Assign IC50 to the following record: c1csc(-c2nc3ccccc3[nH]2)c1
Output: 86 µM

====

Reported SPF values are given for each entry in this list.
# method summary: UV filtering parameters of cosmetic formulation on PMMA plates (modified Diffey-Robson)
# Format: physicochemical
# run conditions: 3% in formulation

Answered examples (3):
c1csc(-c2nc3ccccc3[nH]2)c1
2.79
c1c[nH]c(-c2nc3ccccc3[nH]2)c1
3.06
O=S(=O)(O)c1ccc2[nH]c(-c3ccccc3)nc2c1 [PBSA, reference compound]
5.09

Then this compound:
Input: For the compound c1coc(-c2nc3ccccc3[nH]2)c1 , give its reported SPF.
Output: 11.15

====

# Tested on: Epidermophyton floccosum
# method summary: Antidermatophyte plaque growth inhibition
# Assay type: cell-based
# run conditions: E. floccosum, 100 µg/mL, '+' has no key, read-out: Percent growth inhibition
experimental readout: inhibition at 100 µg/mL (%)
Give your result in % as a bare value.

c1c[nH]c(-c2nc3ccccc3[nH]2)c1
102

As a next step, examine the compound that follows.
Input: Entry O=S(=O)(O)c1ccc2[nH]c(-c3cccs3)nc2c1 needs its inhibition at 100 µg/mL filled in; supply it.
Output: 50

====

# method summary: UV filtering parameters of cosmetic formulation on PMMA plates (modified Diffey-Robson)
# Type: physicochemical
# run conditions: 1% in formulation
The entries below are paired with their reported UVA/UVB.
Give only the figure.

O=S(=O)(O)c1ccc2[nH]c(-c3ccccc3)nc2c1 [PBSA, reference compound]
0.33

Input: Supply UVA/UVB value. Item: c1csc(-c2nc3ccccc3[nH]2)c1 [Compound 12, 2-(thiophen-2-yl)-1H-benzimidazole]
Output: 0.71

Input: Please give measured UVA/UVB of the following entry: c1c[nH]c(-c2nc3ccccc3[nH]2)c1 [Compound 10, 2-(1H-pyrrol-2-yl)-1H-benzimidazole]
Output: 0.70

Input: Name the recorded UVA/UVB of the compound listed here: c1coc(-c2nc3ccccc3[nH]2)c1 [Compound 11, 2-(furan-2-yl)-1H-benzimidazole]
Output: 0.69

====

# Test system: Epidermophyton floccosum
# method summary: Antidermatophyte plaque growth inhibition
# Assay type: cell-based
# run conditions: E. floccosum, 100 µg/mL, '+' has no key, read-out: Percent growth inhibition
The following compounds are shown together with reported inhibition at 100 µg/mL values.
Write the number in % without appending the unit.

Past entries and their recorded results:
O=C(O)c1ccc2[nH]c(-c3ccc[nH]3)nc2c1 [Compound 13]
21.1
O=S(=O)(O)c1ccc2[nH]c(-c3ccc[nH]3)nc2c1 [Compound 7]
52.5
O=C(O)c1ccc2nc(-c3ccco3)[nH]c2c1 [Compound 14]
6.45

Input: Specify inhibition at 100 µg/mL for O=C(O)c1ccc2[nH]c(-c3cccs3)nc2c1 [Compound 15] and stop.
Output: 6.45

Input: Please indicate inhibition at 100 µg/mL recorded for c1csc(-c2nc3ccccc3[nH]2)c1 [Compound 12, 2-(thiophen-2-yl)-1H-benzimidazole]
Output: 94.7
